This listing pairs sequences with measured phosphorylation enrichment.
# Test system: Fer (mouse)
# assay method text: phosphorylation enrichment, bacterial display (enrichment ratio); higher = better substrate or ligand; peptides without Tyr show the background;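 note: 11-residue human phosphosite peptides and single-mutation variants displayed on the E. coli surface, counted by deep sequencing, each peptide's frequency after selection divided by its frequency in the unselected input library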;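 note: frequency after pTyr selection over input frequency; kinase dosed for 20-30% of maximal phosphorylation in three min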
Give your answer as a number; write no unit.

>>> df
                            sequence           observed_property  assay_result
0  GHGEEYPVAGA [NOTCH3_Y2221_A2223V]  phosphorylation enrichment         0.408
1      ADKSAYLMGVN [MYH7_Y386_L390V]  phosphorylation enrichment         0.396
2             KDQGGYTMHQD [MAPT_Y29]  phosphorylation enrichment         0.399

Here is the next item to consider.
Form field phosphorylation enrichment, entry EYLQKYKGFKI [SYNE1_Y6953] : 0.407

----------
This listing pairs sequences with measured phosphorylation enrichment.
# assayed target: FGFR1 (UniProt P11362)
# Sequence (P11362 whole entry, looked up): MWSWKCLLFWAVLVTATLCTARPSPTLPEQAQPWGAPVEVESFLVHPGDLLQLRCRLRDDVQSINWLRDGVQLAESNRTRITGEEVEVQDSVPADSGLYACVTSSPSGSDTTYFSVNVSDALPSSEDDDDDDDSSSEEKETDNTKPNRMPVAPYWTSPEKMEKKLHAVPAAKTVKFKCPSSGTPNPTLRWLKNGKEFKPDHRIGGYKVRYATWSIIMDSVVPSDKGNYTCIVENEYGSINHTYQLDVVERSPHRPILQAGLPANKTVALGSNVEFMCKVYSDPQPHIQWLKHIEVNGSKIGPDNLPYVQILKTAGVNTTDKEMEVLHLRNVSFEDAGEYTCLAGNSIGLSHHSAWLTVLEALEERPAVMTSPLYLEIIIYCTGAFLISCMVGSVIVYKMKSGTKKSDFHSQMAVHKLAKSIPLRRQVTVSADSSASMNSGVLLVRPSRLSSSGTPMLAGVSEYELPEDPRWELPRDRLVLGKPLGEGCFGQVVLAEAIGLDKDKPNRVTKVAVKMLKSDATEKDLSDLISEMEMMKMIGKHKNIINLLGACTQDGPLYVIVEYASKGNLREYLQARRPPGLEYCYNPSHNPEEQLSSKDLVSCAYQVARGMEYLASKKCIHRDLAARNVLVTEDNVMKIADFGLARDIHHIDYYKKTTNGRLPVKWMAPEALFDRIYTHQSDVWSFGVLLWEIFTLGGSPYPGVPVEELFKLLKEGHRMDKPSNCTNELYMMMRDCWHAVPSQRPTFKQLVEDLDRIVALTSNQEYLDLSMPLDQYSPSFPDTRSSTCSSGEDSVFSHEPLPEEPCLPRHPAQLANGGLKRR
# assay method text: phosphorylation enrichment, bacterial display (enrichment ratio); higher = better substrate or ligand; peptides without Tyr show the background
Give your answer as a number; write no unit.

Below, each entry is followed by its recorded phosphorylation enrichment result.
In [3]: df
Out[3]:
                         sequence  assay_result
0   KDKLPYLYDDP [GPX2_Y125_P126L]           0.5
1  WPLKWYVPECI [ZAP70_Y506_A507V]         0.496

Form field phosphorylation enrichment, entry VRQQDYKKVEE [HADHA_Y283_V282D] : 0.514

Form field phosphorylation enrichment, entry CNNFICGGCRG [SPINT2_Y163_Y163C] : 0.5

----------
This listing pairs sequences with measured phosphorylation enrichment.
# assayed target: MERTK (UniProt Q12866)
# Sequence (Q12866 whole entry, looked up): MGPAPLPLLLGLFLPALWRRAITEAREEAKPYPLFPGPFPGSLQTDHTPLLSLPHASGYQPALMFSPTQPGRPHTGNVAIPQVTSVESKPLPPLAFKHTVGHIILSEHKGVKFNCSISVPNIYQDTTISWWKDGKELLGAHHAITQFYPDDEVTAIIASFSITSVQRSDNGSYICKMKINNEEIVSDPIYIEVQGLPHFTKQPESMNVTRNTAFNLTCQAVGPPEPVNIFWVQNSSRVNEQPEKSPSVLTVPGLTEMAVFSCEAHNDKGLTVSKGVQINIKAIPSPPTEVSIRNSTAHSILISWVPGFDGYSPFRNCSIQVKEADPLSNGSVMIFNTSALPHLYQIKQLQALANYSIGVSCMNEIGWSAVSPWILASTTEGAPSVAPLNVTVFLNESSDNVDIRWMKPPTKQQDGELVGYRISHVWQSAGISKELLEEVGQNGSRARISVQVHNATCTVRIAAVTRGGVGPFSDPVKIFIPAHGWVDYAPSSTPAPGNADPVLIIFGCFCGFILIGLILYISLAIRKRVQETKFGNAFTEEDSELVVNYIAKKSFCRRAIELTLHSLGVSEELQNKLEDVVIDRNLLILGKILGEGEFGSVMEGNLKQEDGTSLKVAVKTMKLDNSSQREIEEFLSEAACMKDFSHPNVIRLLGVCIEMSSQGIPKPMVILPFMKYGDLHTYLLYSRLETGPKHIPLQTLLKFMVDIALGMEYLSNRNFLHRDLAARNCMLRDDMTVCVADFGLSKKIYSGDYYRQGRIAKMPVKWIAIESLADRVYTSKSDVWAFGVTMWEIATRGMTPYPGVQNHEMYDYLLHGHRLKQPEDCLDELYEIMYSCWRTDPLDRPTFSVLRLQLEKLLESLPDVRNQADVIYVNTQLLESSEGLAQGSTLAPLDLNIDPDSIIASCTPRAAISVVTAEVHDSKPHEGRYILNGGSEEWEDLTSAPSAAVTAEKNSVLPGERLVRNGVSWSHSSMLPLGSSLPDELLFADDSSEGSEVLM
# assay method text: phosphorylation enrichment, bacterial display (enrichment ratio); higher = better substrate or ligand; peptides without Tyr show the background

>>> print(df.to_string())
                       sequence           observed_property  assay_result
0  VKPENYWRLDI [VHL_Y175_R176W]  phosphorylation enrichment         0.588
1  ALAHKYQGGGG [HBB_Y146_H147Q]  phosphorylation enrichment         0.588

Form field phosphorylation enrichment, entry IPGRYYETGSI [PAX2_Y73_L69P] : 0.405

Form field phosphorylation enrichment, entry GGPTFYIDTNA [ACTL6A_Y69_YF] : 0.41

----------
This listing pairs sequences with measured phosphorylation enrichment.
# assayed target: Fes (UniProt P07332)
# Sequence (P07332 whole entry, looked up): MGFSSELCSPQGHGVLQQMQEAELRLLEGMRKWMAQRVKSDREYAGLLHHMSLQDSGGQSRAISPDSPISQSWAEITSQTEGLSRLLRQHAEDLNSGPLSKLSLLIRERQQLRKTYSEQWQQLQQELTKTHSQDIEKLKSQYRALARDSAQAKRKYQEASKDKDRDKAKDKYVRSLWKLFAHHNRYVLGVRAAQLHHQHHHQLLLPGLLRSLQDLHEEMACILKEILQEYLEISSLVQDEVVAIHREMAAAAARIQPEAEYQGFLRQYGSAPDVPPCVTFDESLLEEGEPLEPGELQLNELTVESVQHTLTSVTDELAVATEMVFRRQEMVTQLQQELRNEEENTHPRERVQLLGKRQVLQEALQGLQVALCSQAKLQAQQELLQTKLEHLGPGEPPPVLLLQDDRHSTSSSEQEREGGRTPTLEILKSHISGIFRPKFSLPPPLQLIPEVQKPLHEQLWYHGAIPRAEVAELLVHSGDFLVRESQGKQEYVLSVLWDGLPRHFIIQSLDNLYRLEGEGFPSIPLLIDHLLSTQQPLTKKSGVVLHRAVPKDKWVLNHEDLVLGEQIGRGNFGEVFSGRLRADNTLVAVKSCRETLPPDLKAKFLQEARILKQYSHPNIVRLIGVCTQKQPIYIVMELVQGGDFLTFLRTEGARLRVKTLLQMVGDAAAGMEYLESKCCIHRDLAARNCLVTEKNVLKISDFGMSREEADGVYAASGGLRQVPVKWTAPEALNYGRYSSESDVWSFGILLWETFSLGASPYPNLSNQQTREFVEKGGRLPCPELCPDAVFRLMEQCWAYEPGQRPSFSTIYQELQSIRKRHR
# assay method text: phosphorylation enrichment, bacterial display (enrichment ratio); higher = better substrate or ligand; peptides without Tyr show the background

In [3]: df
Out[3]:
                        sequence           observed_property  assay_result
0    GIVKAYFVRAR [AIPL1_Y267_YF]  phosphorylation enrichment         0.991
1    CKLFQYFLDHL [ATRX_Y1849_YF]  phosphorylation enrichment          1.41
2  CPFNLYAAQLS [HGD_Y40_E42A_YF]  phosphorylation enrichment          1.29
3    TMEDSYRKQVV [KRAS_Y40_I36M]  phosphorylation enrichment         0.774
4    ILGTYYETGSI [PAX2_Y73_R71T]  phosphorylation enrichment          1.04
5       RDSQLYAVDYE [MRPS34_Y34]  phosphorylation enrichment          2.77

Here is the next item to consider.
Form field phosphorylation enrichment, entry AELVRYFMEHH [PTPN11_Y80_Q79R_YF] : 0.883

----------
# System: c-Abl (mouse)
# assay method text: phosphorylation enrichment, bacterial display (enrichment ratio); higher = better substrate or ligand; peptides without Tyr show the background
# binarize phosphorylation enrichment: threshold 0.6 inclusive, high side label 1, low side label 0

                            sequence  assayed_target  discrete_label
0     IYRASYVPFAA [RBM47_Y541_G538R]   c-Abl (mouse)         label 1
1           YEDALYTVLHR [UNC13D_Y61]   c-Abl (mouse)         label 1
2     EKMWSYTKSAE [GRIA3_Y705_M706T]   c-Abl (mouse)         label 1
3           GSSEDYLHMVH [NIPBL_Y247]   c-Abl (mouse)         label 1
4      ESMNIYLQTSP [NAT1_Y208_T207I]   c-Abl (mouse)         label 1
5    CNNFICGGCRG [SPINT2_Y163_Y163C]   c-Abl (mouse)         label 1
6  MSRDVYSTDCF [NTRK2_Y702_Y706C_YF]   c-Abl (mouse)         label 1
7   AVNNFYAAKKT [CCDC178_Y422_D420N]   c-Abl (mouse)         label 0

Is it the case that HKGASYVFRLS [PTPRD_Y891] has phosphorylation enrichment reaching or exceeding 0.6?
label 1

Is it the case that TVLEPYTDPFF [ZC3H18_Y367_A368T_YF] has phosphorylation enrichment reaching or exceeding 0.6?
label 1

Is it the case that VRTSKYRGGGG [HBA1_Y141_L137R] has phosphorylation enrichment reaching or exceeding 0.6?
label 1

Is it the case that TEDPEYDVQSK [PTCHD3_Y335] has phosphorylation enrichment reaching or exceeding 0.6?
label 1

Is it the case that IRGNMYYENSY [EGFR_Y112] has phosphorylation enrichment reaching or exceeding 0.6?
label 0

Is it the case that TEYSQYMRRKN [MAX_Y73_I71S] has phosphorylation enrichment reaching or exceeding 0.6?
label 0

Is it the case that KICDWYQRQRP [KRT14_Y151_R148C] has phosphorylation enrichment reaching or exceeding 0.6?
label 0

Is it the case that GGFNNYGFGSD [HNRNPH3_Y159_N163S_YF] has phosphorylation enrichment reaching or exceeding 0.6?
label 0

Is it the case that FQKDVYNIPPS [NEDD9_Y177_D178N_YF] has phosphorylation enrichment reaching or exceeding 0.6?
label 0

Is it the case that LTQRTYMLENA [GPAA1_Y49_S51L] has phosphorylation enrichment reaching or exceeding 0.6?
label 1

Is it the case that HNVAIYEGFAL [ACTC1_Y168_P166A_YF] has phosphorylation enrichment reaching or exceeding 0.6?
label 1

Is it the case that LNAGAYSKVVE [PPT1_Y172_Q177E] has phosphorylation enrichment reaching or exceeding 0.6?
label 0

Is it the case that RGFDTYFGYLL [ARSB_Y165] has phosphorylation enrichment reaching or exceeding 0.6?
label 1

Is it the case that ALLVFYAATIA [SLC20A2_Y187_P184L] has phosphorylation enrichment reaching or exceeding 0.6?
label 1

----------
# assayed target: FGFR3 (UniProt P22607)
# Sequence (P22607 whole entry, looked up): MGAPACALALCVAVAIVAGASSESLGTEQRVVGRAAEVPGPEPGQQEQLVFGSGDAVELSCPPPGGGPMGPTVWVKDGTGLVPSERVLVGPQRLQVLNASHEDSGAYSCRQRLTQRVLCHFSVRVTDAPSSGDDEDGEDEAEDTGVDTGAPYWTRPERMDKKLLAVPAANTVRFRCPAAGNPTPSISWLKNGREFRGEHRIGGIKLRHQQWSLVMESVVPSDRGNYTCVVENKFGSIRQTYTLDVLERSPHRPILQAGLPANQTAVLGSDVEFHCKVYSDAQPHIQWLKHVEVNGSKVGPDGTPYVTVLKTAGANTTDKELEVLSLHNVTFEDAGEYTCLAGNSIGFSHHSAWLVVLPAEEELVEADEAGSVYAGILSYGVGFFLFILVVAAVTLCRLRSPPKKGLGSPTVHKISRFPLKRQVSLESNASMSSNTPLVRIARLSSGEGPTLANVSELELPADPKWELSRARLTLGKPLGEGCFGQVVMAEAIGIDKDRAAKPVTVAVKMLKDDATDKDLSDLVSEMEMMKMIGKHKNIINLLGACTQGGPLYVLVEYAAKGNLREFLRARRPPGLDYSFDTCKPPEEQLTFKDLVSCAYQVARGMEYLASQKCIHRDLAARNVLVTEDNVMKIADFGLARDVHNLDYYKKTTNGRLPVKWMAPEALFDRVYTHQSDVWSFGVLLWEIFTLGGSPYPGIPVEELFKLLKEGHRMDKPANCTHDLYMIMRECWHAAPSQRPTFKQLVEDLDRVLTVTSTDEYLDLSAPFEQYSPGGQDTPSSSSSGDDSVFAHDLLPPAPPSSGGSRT
# assay method text: phosphorylation enrichment, bacterial display (enrichment ratio); higher = better substrate or ligand; peptides without Tyr show the background
observed property: phosphorylation enrichment
Give your answer as a number; write no unit.

Below, each entry is followed by its recorded phosphorylation enrichment result.
>>> df
                           sequence           observed_property  assay_result
0          PDKRIYQFTAA [SKAP2_Y197]  phosphorylation enrichment         0.497
1  DFFDLYGGQKF [PTPN11_Y66_E69Q_YF]  phosphorylation enrichment         0.715
2     ESMNIYLQTSP [NAT1_Y208_T207I]  phosphorylation enrichment          0.87
3    LEIETYRRLRD [KRT12_Y429_L433R]  phosphorylation enrichment         0.809

Here is the next item to consider.
Form field phosphorylation enrichment, entry LIHLHYIRRDY [BBS4_Y43_K46R] : 0.759

----------
This listing pairs sequences with measured phosphorylation enrichment.
# assayed target: EPHB2 (UniProt P29323)
# Sequence (P29323 whole entry, looked up): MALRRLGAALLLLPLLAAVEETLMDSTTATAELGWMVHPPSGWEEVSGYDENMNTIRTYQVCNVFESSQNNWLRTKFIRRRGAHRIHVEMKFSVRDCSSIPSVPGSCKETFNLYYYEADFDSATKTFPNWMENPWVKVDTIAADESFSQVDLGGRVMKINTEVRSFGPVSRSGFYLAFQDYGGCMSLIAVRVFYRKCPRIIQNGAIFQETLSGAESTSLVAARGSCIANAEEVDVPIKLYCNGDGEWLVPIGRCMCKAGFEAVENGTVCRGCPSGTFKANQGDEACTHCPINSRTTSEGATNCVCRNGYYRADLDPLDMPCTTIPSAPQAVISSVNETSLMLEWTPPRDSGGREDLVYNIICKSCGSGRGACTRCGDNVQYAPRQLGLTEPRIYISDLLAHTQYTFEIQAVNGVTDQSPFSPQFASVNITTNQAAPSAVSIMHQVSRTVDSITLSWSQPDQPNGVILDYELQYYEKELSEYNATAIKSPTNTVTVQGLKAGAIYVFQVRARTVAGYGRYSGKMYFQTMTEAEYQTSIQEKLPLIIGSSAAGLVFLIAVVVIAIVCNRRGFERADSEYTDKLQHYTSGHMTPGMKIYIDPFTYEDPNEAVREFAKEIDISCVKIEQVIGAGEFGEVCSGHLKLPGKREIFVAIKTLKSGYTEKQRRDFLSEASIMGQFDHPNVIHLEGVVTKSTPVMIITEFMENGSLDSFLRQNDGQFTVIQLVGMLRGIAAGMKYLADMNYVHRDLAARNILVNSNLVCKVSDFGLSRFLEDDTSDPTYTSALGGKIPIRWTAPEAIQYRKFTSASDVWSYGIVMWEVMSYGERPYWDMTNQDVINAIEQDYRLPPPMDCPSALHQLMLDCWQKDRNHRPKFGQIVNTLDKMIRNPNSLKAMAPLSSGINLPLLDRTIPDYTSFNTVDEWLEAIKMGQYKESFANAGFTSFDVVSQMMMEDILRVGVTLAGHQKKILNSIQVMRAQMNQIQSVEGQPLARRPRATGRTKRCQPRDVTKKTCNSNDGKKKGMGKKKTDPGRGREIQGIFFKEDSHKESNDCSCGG
# assay method text: phosphorylation enrichment, bacterial display (enrichment ratio); higher = better substrate or ligand; peptides without Tyr show the background
Give your answer as a number; write no unit.

Below, each entry is followed by its recorded phosphorylation enrichment result.
>>> df
                             sequence          assayed_target           observed_property  assay_result
0        QGLRLYRTHLA [BTK_Y617_P619T]  EPHB2 (UniProt P29323)  phosphorylation enrichment         0.486
1             AKGMKYLASKK [MET_Y1194]  EPHB2 (UniProt P29323)  phosphorylation enrichment         0.324
2       EIRTQDEAMAS [GFAP_Y242_Y242D]  EPHB2 (UniProt P29323)  phosphorylation enrichment          0.42
3          SFKNKYGMVAQ [APOB_Y276_YF]  EPHB2 (UniProt P29323)  phosphorylation enrichment         0.354
4           PEADKYRLTFA [FGG_Y300_YF]  EPHB2 (UniProt P29323)  phosphorylation enrichment         0.697
5              FLLTVYSIFSK [SGCE_Y38]  EPHB2 (UniProt P29323)  phosphorylation enrichment         0.589
6              VKMLLYTEVTR [GDI1_Y93]  EPHB2 (UniProt P29323)  phosphorylation enrichment          1.25
7        SHSMRYFSTAV [HLA-C_Y31_D33S]  EPHB2 (UniProt P29323)  phosphorylation enrichment         0.452
8       EFISENCGEII [EZH2_Y641_Y641N]  EPHB2 (UniProt P29323)  phosphorylation enrichment          0.57
9  AGVDRYSLGTS [C5orf42_Y1451_P1446A]  EPHB2 (UniProt P29323)  phosphorylation enrichment         0.366

Here is the next item to consider.
Form field phosphorylation enrichment, entry TVFENYVADIE [RHOA_Y42] : 0.664

The measured values listed here are drawn from the supplement of paper PMC10065799.
